Tested on: Human papillomavirus type 1a protein E7 (residues 44-93)
Assay: HPV1a E7 fragment binders on microarrays, primary screen, biochemical, small-molecule microarray, residues 44-93, 635 nm fluorescence (AID 1108);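 also: E7 fragment applied at 1 µg/mL in TBST for 1 h at 4 C; score combines spot fluorescence with its signal to noise ratio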
Conditions: small-molecule microarray binding, fluorescence 635 nm; higher = more signal
Assign composite z-score to each entry below.
Numbers only.

Please review the following examples before continuing.
[[record]]
molecule = "C#CCCCON=C1C[C@@H](O)[C@@H](O)[C@@H]2[C@@H]3C(=O)N(CCC(=O)OCC)C(=O)[C@@H]3CC[C@H]12"
measured_endpoint = "composite z-score"
measured = 0.0844

[[record]]
molecule = "CCCCC#C[C@@H]1C=C[C@H](Oc2ccc(C(=O)OC)cc2)[C@@H](COC(=O)OCC)O1"
measured_endpoint = "composite z-score"
measured = 0.42

[[record]]
molecule = "Cc1cc2c(nc1C)CCCN2CC(O)CN1CCCc2nc(C)c(C)cc21"
measured_endpoint = "composite z-score"
measured = 0.142

[[record]]
molecule = "COC(=O)C1=C(C)N(Cc2ccccc2)[C@]23O[C@](C(=O)OC)(C(=O)N2[C@@H]1c1ccccc1)C(C(=O)OC)=C3C(=O)OC"
measured_endpoint = "composite z-score"
measured = 1.3

[[record]]
molecule = "COc1cc(O)c(C(=O)C=Cc2ccc3c(c2)OCO3)c(OC)c1"
measured_endpoint = "composite z-score"
measured = -2.33

[[record]]
molecule = "CCC=CCCC(OC(=O)c1ccc(Br)cc1)C1=CCCCC1=O (stereo not drawn)"
measured_endpoint = "composite z-score"
measured = 1.17


// for each molecule in input: emit composite z-score
1. CC(C)CON=C1C[C@@H](O)[C@@H](O)[C@@H]2[C@@H]3C(=O)N(c4cccc(Oc5ccccc5)c4)C(=O)[C@@H]3CC[C@@H]12
2. CC(=O)OC[C@H]1O[C@H](CCON=C2[C@H]3CCn4c(=O)n(-c5ccccc5)c(=O)n4[C@H]3[C@H](O)[C@@H]3O[C@H]23)C=C[C@@H]1OC(C)=O

-- reply
1.35
0.253

----------
Test: E. coli acrAB mutant growth effects, primary screen, E. coli filamentation inducers, strain DRC39, OD650, 24 h (AID 1178);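 also: growth measured as culture turbidity by optical density at 650 nm; test concentration not given here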
Details: higher = more signal, called active from +8 up or from −8 down
Measured endpoint: z-score
One number for each entry.

[[record]]
smiles_str = "CCCNC(=O)OC[C@H]1O[C@H](CCON=C(C)C)C=C[C@@H]1Oc1ccc(OC)cc1"
measured = 0.675

[[record]]
smiles_str = "CCN1C(=O)[C@H]2[C@H]3[C@H](O)[C@H](O)CC(=NO[C@@H](C)c4cn([C@H](CO)Cc5ccccc5)nn4)[C@@H]3CC[C@H]2C1=O"
measured = 0.121

[[record]]
smiles_str = "C#CCCCON=C1C[C@@H](O)[C@@H](O)[C@@H]2[C@@H]3C(=O)N(C(C)(C)C)C(=O)[C@@H]3CC[C@@H]12"
measured = -0.35


-- ask Recorded z-score for `CCOC(=O)C1=NO[C@]2(C=C(Br)C3(OCCCO3)[C@H]3O[C@H]32)C1` , please?
-- reply 0.336

----------
Molecular target: Dickkopf-related protein 1 (Homo sapiens)
Assay: DKK1 binders on small-molecule microarrays, primary screen, biochemical, small-molecule microarray, 635 nm fluorescence scan (AID 1106);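 also: score merges emission near 667 nm with signal to noise over three replicate slides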
Settings: DKK1 binding, higher = more signal
Measured endpoint: composite z-score
Give bare numbers.

Please review the following examples before continuing.
[[record]]
compound = "CON=C(C)CCC(=O)OC[C@H]1O[C@H](c2ccccc2)C=C[C@@H]1Oc1ccc(OC)cc1"
measured = 0.474

[[record]]
compound = "CO[C@H]1COC(=O)[C@@H]2CCCN2C(=O)CC=C[C@@H](C)[C@H](OC)COC(=O)[C@@H](OCc2ccccc2)C=C[C@@H]1C"
measured = 1.75

[[record]]
compound = "COC(=O)[C@H](C)NC(=O)CCC1CC(OC(=O)NCc2ccc3c(c2)OCO3)CC2(CCCC(COC(=O)NCc3cccc(C(F)(F)F)c3)O2)O1 (some centres not stated)"
measured = 0.235

[[record]]
compound = "CO[C@H]1COC(=O)[C@H](C)NC(=O)[C@@H](C)COC(=O)[C@H]2CCCN2C(=O)CC=C[C@H]1C"
measured = 1.55

[[record]]
compound = "CCOC(=O)[C@H](CC(C)C)NC(=O)CCC1CC(OC(=O)NCc2ccc3c(c2)OCO3)CC2(CCCC(COC(=O)NCc3cccc(C(F)(F)F)c3)O2)O1 (some centres not stated)"
measured = 0.355


// for each compound in input: emit composite z-score
1. O=C(NN=C1C[C@@H](O)[C@@H](O)[C@@H]2[C@@H]3C(=O)N(C4CCCCC4)C(=O)[C@@H]3CC[C@H]12)OCc1ccccc1
2. CCOC(=O)C1=NO[C@]2(C=C(Br)C3(OCCCO3)[C@H]3O[C@H]32)C1

-- reply
1. -0.504
2. -0.123
